Each entry below lists one item and its recorded inhibition value.
Target: Mannose-6-phosphate isomerase (Homo sapiens)
Assay: inhibitors of human PMI, primary screen, biochemical, fluorescence intensity, coupled assay (AID 1209);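 note: plate controls were DMSO vehicle for no effect and wells lacking substrate for full effect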
Conditions: purified PMI enzyme, at 20 µM, active compounds read high
In all, about 190,000 compounds went through this assay and about 810 (0.43%) were called active. Many of the other results were omitted from the sample, so actives are more common in it than they were.
READOUT_KIND: inhibition (%)

>  <MOLECULE>
CC(=O)Nc1nc(SCc2ccc(Cl)cc2Cl)n[nH]1

>  <READOUT_KIND>
inhibition

>  <REPORTED>
2

$$$$
>  <MOLECULE>
CCOc1ccc(NS(=O)(=O)c2ccc(NC(=S)NC(C)=O)cc2)cc1

>  <READOUT_KIND>
inhibition

>  <REPORTED>
4.1

$$$$
>  <MOLECULE>
C[N+]1=C(/C=C/Nc2ccccc2Cl)C(C)(C)c2ccccc21

>  <READOUT_KIND>
inhibition

>  <REPORTED>
78.4

$$$$
>  <MOLECULE>
CNC(=O)c1nn(-c2ccc(Cl)cc2)ccc1=O

>  <READOUT_KIND>
inhibition

>  <REPORTED>
6.2

$$$$
>  <MOLECULE>
CCN1CCN(c2nc3ccccc3nc2C(C#N)C(=O)OCc2ccccc2)CC1 (stereo unspecified)

>  <READOUT_KIND>
inhibition

>  <REPORTED>
8.9

$$$$
>  <MOLECULE>
CC1(C)c2ssc(=S)c2-c2ccccc2N1C(=O)CSC1=NCCS1

>  <READOUT_KIND>
inhibition

>  <REPORTED>
14.3

$$$$
>  <MOLECULE>
CN(C)CCCNS(=O)(=O)c1ccc(Cl)s1

>  <READOUT_KIND>
inhibition

>  <REPORTED>
0

$$$$
>  <MOLECULE>
CCC(C)C(=O)N1c2ccccc2C(=C2SC(C(=O)OC)=C(C(=O)OC)S2)C(=S)C1(C)C (stereo unspecified)

>  <READOUT_KIND>
inhibition

>  <REPORTED>
63.8

$$$$
>  <MOLECULE>
CCS(=O)(=O)c1ccc2c(c1)N(S(=O)(=O)c1ccc(Cl)cc1)CC(C(=O)O)O2 (stereo unspecified)

>  <READOUT_KIND>
inhibition

>  <REPORTED>
-3.9

$$$$
>  <MOLECULE>
O=C(CSc1ncn[nH]1)Nc1ccc(Br)cc1F

>  <READOUT_KIND>
inhibition

>  <REPORTED>
6

$$$$
>  <MOLECULE>
O=C(O)c1ccc(/C=C/c2nc3sc4c(c3c(=O)[nH]2)CCC4)cc1

>  <READOUT_KIND>
inhibition

>  <REPORTED>
-3.7

$$$$
